- assayText: NCI Yeast Anticancer Drug Screen. Data for the mlh1 rad18 strain (AID 175)
- setupConditions: S. cerevisiae mlh1 rad18 strain growth inhibition; at 50.0 µM; hits give high values
Compounds without any hit were thinned out: in the full panel of roughly 79,000, 15% have a hit.
Item-by-item account of growth inhibition
Unit % implied. Number only.

Challenge: Record request: growth inhibition value, item CC1CC(=O)C(CCC#N)=C(O)C1 (stereo unspecified)
Response given: 4.95

Challenge: Record request: growth inhibition value, item "c1ccc(CCc2ccncc2)cc1"
Response given: -13.3

Challenge: Record request: growth inhibition value, item CCSC(OC(C)=O)C(Nc1ccc([N+](=O)[O-])cc1[N+](=O)[O-])C(OC(C)=O)C(OC(C)=O)C(COC(C)=O)OC(C)=O (stereo unspecified)
Response given: 24.9

====

Item-by-item account of growth inhibition
- assayText: NCI Yeast Anticancer Drug Screen. Data for the bub3 strain (AID 167)
- setupConditions: S. cerevisiae bub3 mutant strain, at 50.0 µM, hits give high values
The panel holds about 79,000 compounds, 15% with a hit somewhere; the sample as a whole holds those more often. The source made the active and inactive calls. Cut-off read from the data, not from the text of the source: active = growth inhibition above about 70%; inactive = the rest. Where a SMILES comes first, the peptide text is derived from it. The star is where a group is joined. Cbz = O=C(OCc1ccccc1)*

Answered examples (3):
> print(dat)
                                   compound             result
1  O=CC1(CCc2ccccc2)NC(=O)NC1=O (stereo not given)   -0.4% (inactive)
2  CCCC(=O)Nc1cn(COC)c(C(=O)N2C[C@@H]3C[C@]34C2=CC(=O)c2[nH]cc(C)c24)n1   26.2% (inactive)
3  C=CC(C/C(C)=N/Nc1ccc([N+](=O)[O-])cc1[N+](=O)[O-])c1ccccc1 (stereo not given)  -19.6% (inactive)

Challenge: Record request: growth inhibition value, item O=CC12c3ccccc3C(c3ccccc31)C1C(=O)NC(=O)C12 (stereo not given)
Response given: -18.3% (inactive)

Challenge: Record request: growth inhibition value, item C=CCCCCCCCCC1OCC(CC)C(CCC)O1 (stereo not given)
Response given: 26.5% (inactive)

Challenge: Record request: growth inhibition value, item O=C(O)C(CO)NC(=O)C1CCCN1C(=O)OCc1ccccc1 (stereo not drawn) (Cbz-Pro-Ser-OH; configuration not given here)
Response given: -4.75% (inactive)

Challenge: Record request: growth inhibition value, item "Cc1cc2c(C)nn(Cc3ccc(Cl)cc3Cl)c2c(C#N)c1C"
Response given: 5.8% (inactive)

Challenge: Record request: growth inhibition value, item "CCCNC(=O)N(CCN(C)C)S(=O)(=O)c1ccc(Cl)cc1"
Response given: -21.1% (inactive)

Challenge: Record request: growth inhibition value, item O=C(OCCCl)C1OC(n2cc(F)c(=O)[nH]c2=O)CC1O (stereo not given)
Response given: 2.55% (inactive)

Challenge: Record request: growth inhibition value, item "O=C1c2ccccc2-c2ccc([N+](=O)[O-])cc21"
Response given: -1.3% (inactive)

====

- assayText: NCI Yeast Anticancer Drug Screen. Data for the rad50 strain (AID 155);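 note: 0% = growth of vehicle-only cultures of the same strain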
- setupConditions: S. cerevisiae rad50 strain growth inhibition; at 50.0 µM; hits give high values
The panel holds about 79,000 compounds, 15% with a hit somewhere; the sample as a whole holds those more often.
experimentalEndpoint: growth inhibition (%)
Unit % implied. Number only.

> print(dat)
                                    compound  unitspec  resultnumber
 1  C[C@H]1C(=O)CCC2[C@]3(C)CC4OC(=O)C5(CC[C@@]6(C)CCC(C)(C)CC6C45C)C3CC[C@@]21C (some centres not stated)         %          -0.7
 2                 SC(S)(Cc1ccccc1)Cc1ccccc1         %          -6.4
 3       Cc1c(-c2ccccc2)[nH]c2ccc(Cl)cc2c1=O         %          -7.5
 4               Cn1nc(C(=O)NN)c(=O)[nH]c1=O         %          10.9
 5             NC(=O)C(C(N)=O)c1ccnc2ccccc12         %           8.6
 6  CC(C)CC1NC(=S)N(c2ccccc2)C1=O (configuration not stated)         %           -11
 7                CCCSc1ncnc2c1ncn2COC(=O)NC         %          15.1
 8  O=C(O)/C(=C/c1ccccc1[N+](=O)[O-])c1cccs1         %          27.9
 9         CCN(CC)C(=S)N=N/C(C)=C1/C=CC=CN1O         %           1.4
10  CCN(CC)CCC(=O)N1CCc2c([nH]c3ccccc23)C1c1cccnc1 (configuration not stated)         %         -26.9

Challenge: Record request: growth inhibition value, item "OCc1cn(C(c2ccccc2)(c2ccccc2)c2ccccc2)cn1"
Response given: -113

Challenge: Record request: growth inhibition value, item COC(=O)/C=C/C1C2C3(CCC(C)C12C)OCCS3 (configuration not stated)
Response given: -23.4

====

- assayText: NCI Yeast Anticancer Drug Screen. Data for the rad50 strain (AID 155);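 note: 0% = growth of vehicle-only cultures of the same strain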
- setupConditions: S. cerevisiae rad50 strain growth inhibition; at 50.0 µM; hits give high values
This is part of a sample that, as a whole, favours compounds with a hit. Of some 79,000 tested, about 15% had one in any assay.
Item-by-item account of growth inhibition
Unit % implied. Number only.

> print(dat)
                                   molecule  experimentalendpoint  resultnumber
1  CC(=NNC(=S)Nc1ccc(C)cc1)c1cccc(C(C)=NNC(=S)Nc2ccc(C)cc2)n1     growth inhibition          35.5
2              O=C1Cc2ccccc2C(O)=C1c1cnccn1     growth inhibition           6.3
3       CC(=O)c1ccc(OC(=O)Nc2ccc(Cl)cc2)cc1     growth inhibition           4.8
4  O=C(Nc1ccccc1)c1cc([N+](=O)[O-])cc([N+](=O)[O-])c1     growth inhibition          9.25
5           CC(O)CC(C)CO (stereo not drawn)     growth inhibition          23.1
6       CCC/C=N\NS(=O)(=O)c1ccc(NC(C)=O)cc1     growth inhibition          4.65

Challenge: Record request: growth inhibition value, item C/C(Cl)=C/CC1(C)CCCC(C)(C)CC1=O (stereo not drawn)
Response given: 6.4

Challenge: Record request: growth inhibition value, item COc1ccc(C2CCCCCC2OC(=O)c2ccc([N+](=O)[O-])cc2)c(OC)c1OC (stereo not drawn)
Response given: 16

Challenge: Record request: growth inhibition value, item "O=C(Cc1ccccc1)NN1C(=O)/C(=C\c2cccc(O)c2)SC1=Nc1ccccc1"
Response given: -11

Challenge: Record request: growth inhibition value, item CCOC(=O)C1=C(OC(OCC)C([Se]c2ccccc2)C(C)C)CCC1 (stereo not drawn)
Response given: 65.8

Challenge: Record request: growth inhibition value, item "COC(=O)C1=C(C)NC(C)=C(C(=O)OC)C1c1cccc(N=O)c1"
Response given: 9.85

Challenge: Record request: growth inhibition value, item Nc1ncnc2c1c1cncnc1n2C1OC(CO)C(O)C1O (stereo not drawn)
Response given: 9.55

Challenge: Record request: growth inhibition value, item "S=C([S-])[P+](C1CCCCC1)(C1CCCCC1)C1CCCCC1"
Response given: -30.9

Challenge: Record request: growth inhibition value, item "O=C1C=CC(=O)c2c1ccc1c3ccccc3n(CCCCCn3c4ccccc4c4ccc5c(c43)C(=O)C=CC5=O)c21"
Response given: -20.8

Challenge: Record request: growth inhibition value, item "Nc1c(N=Nc2ccc(S(=O)(=O)Nc3cnccn3)cc2)cc(S(=O)(=O)O)c2ccccc12"
Response given: 10.6

====

- assayText: NCI Yeast Anticancer Drug Screen. Data for the sgs1 mgt1 strain (AID 161);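 note: 0% = growth of cultures given vehicle only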
- setupConditions: S. cerevisiae sgs1 mgt1 strain, at 50.0 µM, hits give high values
The panel holds about 79,000 compounds, 15% with a hit somewhere; the sample as a whole holds those more often.
Item-by-item account of growth inhibition
Unit % implied. Number only.

Answered examples (10):
> print(dat)
                                    compound  resultnumber
 1  CC1=C(C#N)C(=O)OC1(C)C1CCCC(=O)C1 (stereo not drawn)         -11.3
 2                   CCCCCCCCCCCCCCNC(=O)CCl          -5.8
 3            CC1SCCNC1=O (stereo not drawn)          -0.1
 4       Brc1ccc(-c2ccc(-c3ccc(Br)cc3)s2)cc1          36.5
 5          N#CCCc1c(-c2ccccc2)nc(N)[nH]c1=O          2.75
 6  CCOC(=O)c1cn(C)c2c1C(=O)C(C(=O)OCC)CCN2C(=O)OCC (stereo not drawn)         -11.8
 7              O=C(NNC(=O)C(F)(F)F)C(F)(F)F          -5.1
 8  COCCN(CCOC)C1C2=C(CCCC2)OS(=O)(=O)C1c1ccccc1 (stereo not drawn)          6.45
 9  C=C1c2cc3c(cc2CC12Cc1cc4c(cc1C2=O)CCC4)CCC3 (stereo not drawn)          11.3
10  CC(=O)NC(C(=O)NC(CSCc1ccccc1)C(=O)O)=C(C)C (stereo not drawn)           8.9

Challenge: Record request: growth inhibition value, item "CC1(C)C=C(C(=O)O)C(C)(C)N1O"
Response given: 5.65

Challenge: Record request: growth inhibition value, item "CCCCN(c1ccccn1)S(=O)(=O)c1ccccc1"
Response given: 19.3

Challenge: Record request: growth inhibition value, item "CCC(=O)OCCN(C(=O)CC)c1ccccc1"
Response given: 22.2
